Target: Sodium/potassium-transporting ATPase (Canis familiaris)
Test: Compound was evaluated for its ability to inhibit the specific [3H]-ouabain binding to dog kidney Na+/K+ ATPase
Listing of entries alongside the reported IC50.

[
  {
    "Compound": "C[C@]12CC[C@H](O)C[C@H]1CC[C@@H]1[C@@H]2CC[C@]2(C)[C@@H](/C=C/C=O)CC[C@]12O",
    "IC50": "60 nM"
  },
  {
    "Compound": "C[C@H]1/C(=C/C(=O)OCCN(C)C)CCC2C1C(=O)C[C@H]1C(C)(C)[C@@H](O)CC[C@]21C (some centres not stated)",
    "IC50": "100 nM"
  }
]
